Where these numbers come from: PubChem BioAssay (NCI)

// reported GI50 for each item listed
Tested on: SK-MEL-2 melanoma
Method notes: NCI tumour cell line growth inhibition, 48 h
Metric: GI50

>>> value_observed("COc1ccc(/C=C\\c2cc(OC)c(OC)c(OC)c2)cc1OCC(=O)Nc1nc2ccc(F)cc2s1")
"8.46 µM"
>>> value_observed("O=c1c2ccccc2sc2c(NCCCNCCO)nc3ccccc3c12")
"1.87 µM"
>>> value_observed("CC(C)(C)C(=O)OCOP(=O)(NCc1ccccc1)C1CCCN(O)C1=O (stereo unspecified)")
"2.85 µM"
>>> value_observed("CC(C)C[C@H](NC(=O)CNC(=O)c1cc(Cl)ccc1Cl)B(O)O")
"< 0.0145 µM"
>>> value_observed("COc1ccccc1Nc1cc(O)c2c(=O)cc(-c3ccccc3)oc2c1")
"5.62 µM"
>>> value_observed("Cc1cc2nc(NCCN)n(Cc3ccc(F)c(Cl)c3)c2cc1C")
"19.1 µM"
>>> value_observed("Cc1onc(-c2ccccc2)c1C(=O)N/N=C/c1cc(Cl)cc(Cl)c1O")
"11.5 µM"
>>> value_observed("Cc1ccc(O)c(NC(=O)c2cccc(Nc3ccnc(C(F)(F)F)c3)c2)c1")
"5.28 µM"
>>> value_observed("O=C1Nc2c(ccc(Cl)c2Cl)/C1=C/c1cc(Br)c(O)c(Br)c1")
"5.15 µM"
>>> value_observed("Cc1cc2c(C(=O)NC[C@H](C)c3ccccc3)c(O)c(O)cc2c(O)c1-c1c(C)cc2c(C(=O)NC[C@H](C)c3ccccc3)c(O)c(O)cc2c1O")
"0.596 µM"
>>> value_observed("O=C1N[C@@H]2[C@@H](O)[C@@H](O)[C@H](O)C[C@H]2c2cc3c(c(O)c21)OCCO3")
"0.286 µM"
